test.name: Test on pharmacokinetics and bioavailability of rats
Format: in vivo, SD rats
recorded.conditions: rat, plasma; male SD rats, single dose 25 mg/kg, oral administration; read-out: Cmax
Catalogue of Cmax readings, one per entry.

compound: [2H]C([2H])([2H])c1ccc2c(c1)C=C(C(=O)O)C(C(F)(F)F)O2 (centres unmarked) [GIBH-1004]
unit.label: ng/mL
Cmax: 34200

compound: [2H]C([2H])([2H])C([2H])([2H])c1cc(OC(F)(F)F)cc2c1OC(C(F)(F)F)C(C(=O)O)=C2 (centres unmarked) [GIBH-1006]
unit.label: ng/mL
Cmax: 29500

###

Catalogue of AUC readings, one per entry.
test.name: Test on pharmacokinetics and bioavailability of rats
Type: in vivo, SD rats
recorded.conditions: rat, plasma; male SD rats, single dose 25 mg/kg, oral administration
measured.endpoint: AUC (µg·h/mL)

compound: [2H]C([2H])([2H])c1ccc2c(c1)C=C(C(=O)O)C(C(F)(F)F)O2 (centres unmarked)
assay.result: 181
--
compound: [2H]C([2H])([2H])C([2H])([2H])c1cc(OC(F)(F)F)cc2c1OC(C(F)(F)F)C(C(=O)O)=C2 (centres unmarked)
assay.result: 511

###

Catalogue of IC50 readings, one per entry.
assayed.target: ovine COX-1 (Ovis aries, UniProt P05979)
Sequence (P05979 25-600): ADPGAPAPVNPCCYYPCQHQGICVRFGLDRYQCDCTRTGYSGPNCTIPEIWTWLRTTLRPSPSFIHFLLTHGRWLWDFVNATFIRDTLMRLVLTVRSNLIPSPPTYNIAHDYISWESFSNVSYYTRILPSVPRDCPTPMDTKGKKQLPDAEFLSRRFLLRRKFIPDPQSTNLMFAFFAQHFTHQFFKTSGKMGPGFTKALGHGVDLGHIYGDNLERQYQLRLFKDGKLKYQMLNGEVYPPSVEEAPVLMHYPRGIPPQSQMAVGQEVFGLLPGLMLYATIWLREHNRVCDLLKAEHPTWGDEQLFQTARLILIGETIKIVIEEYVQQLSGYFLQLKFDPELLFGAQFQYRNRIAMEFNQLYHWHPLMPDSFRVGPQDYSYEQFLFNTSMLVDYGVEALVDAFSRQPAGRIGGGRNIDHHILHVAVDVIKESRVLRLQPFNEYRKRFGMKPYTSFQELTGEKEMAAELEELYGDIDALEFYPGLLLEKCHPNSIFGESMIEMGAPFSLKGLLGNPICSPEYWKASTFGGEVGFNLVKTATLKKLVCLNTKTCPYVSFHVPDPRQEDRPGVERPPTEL
test.name: COX-1 enzyme inhibition (ADHP fluorescence)
Type: biochemical
recorded.conditions: ovine COX-1, 15 min incubation; read-out: Inhibition IC50 COX-1
measured.endpoint: IC50

compound: [2H]C([2H])([2H])c1cc2c(c(C([2H])([2H])[2H])c1Cl)C=C(C(=O)O)C(C(F)(F)F)O2 (centres unmarked)
assay.result: > 100 µM

compound: [2H]C([2H])([2H])c1c(Br)c2c(c(C([2H])([2H])[2H])c1Br)C=C(C(=O)O)C(C(F)(F)F)O2 (centres unmarked)
assay.result: 5.45 µM

compound: [2H]C([2H])([2H])c1cc(Cl)cc2c1OC(C(F)(F)F)C(C(=O)O)=C2 (centres unmarked)
assay.result: > 100 µM

compound: [2H]C([2H])([2H])C([2H])([2H])c1cc(OC(F)(F)F)cc2c1OC(C(F)(F)F)C(C(=O)O)=C2 (centres unmarked)
assay.result: > 100 µM

compound: [2H]C([2H])([2H])c1cc(Cl)c2c(c1)C=C(C(=O)O)C(C(F)(F)F)O2 (centres unmarked)
assay.result: > 100 µM

compound: [2H]C([2H])([2H])c1cc2c(c(C([2H])([2H])[2H])c1Br)C=C(C(=O)O)C(C(F)(F)F)O2 (centres unmarked)
assay.result: > 100 µM

compound: [2H]C([2H])([2H])c1ccc2c(c1)C=C(C(=O)O)C(C(F)(F)F)O2 (centres unmarked)
assay.result: > 100 µM

compound: [2H]C([2H])([2H])c1cc(Br)cc2c1OC(C(F)(F)F)C(C(=O)O)=C2 (centres unmarked)
assay.result: 31.8 µM

Source: patent US9371305B2
